Target: human P2X7 receptor (Homo sapiens, UniProt Q99572, R270H/Y155H)
Experiment: Evaluation of human P2X7 receptor inhibitory activity (Yo-Pro uptake, BzATP stimulation, FLIPR TETRA)
Type: cell-based
Details: 1321N1 cells stably expressing human P2X7 receptor; BzATP stimulation, Yo-Pro uptake; read-out: IC50 (antagonistic activity for the human P2X7 receptor)
Experimental: Stably expressing cell line (1321N1 cell transfected with the human P2X7 receptor gene (GenBank accession number NM_002562.5 including T606C and G952A SNP)) was used. […] Measurement of fluorescence intensity by FLIPR TETRA was started. […] Changing values of fluorescence intensity by the compound of the present invention were calculated by difference between maximum and minimum fluorescence intensity for 20 minutes. Inhibition ratios (%) were calculated from the following equation: […]
// classify: if (IC50 < 40 nM) Satisfied else Not satisfied

Worked examples follow.
mol.smiles | measured.target | assigned.class
COc1ccc(C)c(Oc2cc(=O)c(OC)cn2Cc2ccc(F)c(Cl)c2)c1 | human P2X7 receptor (Homo sapiens, UniProt Q99572, R270H/Y155H) | Not satisfied
CCOC(=O)c1cn(Cc2ccccc2)c(Nc2cc(C)c(C)cc2C)nc1=O | human P2X7 receptor (Homo sapiens, UniProt Q99572, R270H/Y155H) | Satisfied
Cc1c(Cl)cccc1Nc1cc(=O)n(C)c(=O)n1Cc1ccccc1 | human P2X7 receptor (Homo sapiens, UniProt Q99572, R270H/Y155H) | Not satisfied
Cc1ccc(-c2ncco2)cc1Nc1nc(=O)c(F)cn1Cc1ccc(F)c(Cl)c1 | human P2X7 receptor (Homo sapiens, UniProt Q99572, R270H/Y155H) | Satisfied
CCc1cc2c(cc1Nc1nc(=O)c(F)cn1Cc1ccc(F)cc1)CCC2 | human P2X7 receptor (Homo sapiens, UniProt Q99572, R270H/Y155H) | Satisfied

Prompt: Determine if `CCc1cc2c(cc1Nc1nc(=O)c(OC)cn1Cc1ccc(F)c(Cl)c1)CCC2` shows IC50 strictly lower than 40 nM.
Response: Satisfied

Prompt: Next: `COc1cn(Cc2cc(F)cc(F)c2)c(Nc2cccc3c(=O)[nH]ccc23)nc1=O`
Response: Satisfied

Prompt: Next: `Cc1ccc(-c2nnco2)cc1Nc1nc(=O)c(F)cn1Cc1cc(F)c(F)c(F)c1`
Response: Satisfied

Prompt: Next: `COc1cn(Cc2ccc(F)c(Cl)c2)c(Nc2cc3ncccc3cc2C)nc1=O`
Response: Not satisfied

Prompt: Next: `COc1cn(Cc2ccc(F)c(Cl)c2)c(Nc2cc3cc[nH]c3cc2C)nc1=O`
Response: Satisfied

Prompt: Next: `COc1cn(Cc2ccc(F)c(C)c2)c(Nc2cccc(Cl)c2C)nc1=O`
Response: Satisfied

Prompt: Next: `COc1cc(C)c(Nc2nc(=O)c(OC)cn2Cc2cc(F)cc(F)c2)cc1C`
Response: Satisfied

Prompt: Next: `COc1cn(Cc2cc(F)c(F)c(F)c2)c(Nc2cc3scnc3cc2C)nc1=O`
Response: Satisfied

Prompt: Next: `COc1cn(Cc2ccccc2)c(Nc2cc3nc(C)sc3cc2C)nc1=O`
Response: Not satisfied

Prompt: Next: `CCOc1cc(C)c(Nc2nc(=O)c(OC)cn2Cc2cc(F)cc(Cl)c2)cc1C`
Response: Satisfied

Prompt: Next: `COc1cc(C)c(Nc2cc(=O)c(OC)cn2Cc2ccccc2)cc1C`
Response: Not satisfied
